- Test system: CD86 surface expression on CD19+/7AAD- total mouse splenocytes stimulated with IgM
- Method: CD86 Inhibition Assay
- Assay type: cell-based
- Run Conditions: Splenocyte; Balb/c mouse splenocytes, IgM stimulation, 24 hr
Reported Metric: EC50 (nM)

- Molecule: "Cn1cc(-c2cccc(N3Cc4cc(C(C)(C)C)ccc4C3=O)c2CO)cc(Nc2ccncn2)c1=O"
  Target Or Test System: "CD86 surface expression on CD19+/7AAD- total mouse splenocytes stimulated with IgM"
  Measurement Unit: "nM"
  Result Number: 74
- Molecule: "Cc1cc(Nc2cc(-c3cccc(N4Cc5cc(C(C)(C)C)sc5C4=O)c3CO)cn(C)c2=O)n[nH]1"
  Target Or Test System: "CD86 surface expression on CD19+/7AAD- total mouse splenocytes stimulated with IgM"
  Measurement Unit: "nM"
  Result Number: 229
- Molecule: "Cn1cc(-c2cccc(N3Cc4cc(C(C)(C)C)sc4C3=O)c2CO)nc(Nc2ccc(N3CCOCC3)cc2)c1=O"
  Target Or Test System: "CD86 surface expression on CD19+/7AAD- total mouse splenocytes stimulated with IgM"
  Measurement Unit: "nM"
  Result Number: 153
- Molecule: "Cn1cc(-c2cccc(N3Cc4cc(C(C)(C)C)sc4C3=O)c2CO)nc(Nc2ccc(C3CCNCC3)cc2)c1=O"
  Target Or Test System: "CD86 surface expression on CD19+/7AAD- total mouse splenocytes stimulated with IgM"
  Measurement Unit: "nM"
  Result Number: 306
- Molecule: "Cn1cc(-c2cccc(N3Cc4cc(C(C)(C)C)sc4C3=O)c2CO)cc(Nc2cc3n(n2)CCOC3)c1=O"
  Target Or Test System: "CD86 surface expression on CD19+/7AAD- total mouse splenocytes stimulated with IgM"
  Measurement Unit: "nM"
  Result Number: 149
- Molecule: "Cc1c(-c2cn(C)c(=O)c(Nc3ccc(C4C(=O)N(C)CCN4C)cc3)n2)cccc1N1Cc2cc(C(C)(C)C)ccc2C1=O (centres unmarked)"
  Target Or Test System: "CD86 surface expression on CD19+/7AAD- total mouse splenocytes stimulated with IgM"
  Measurement Unit: "nM"
  Result Number: 498
- Molecule: "Cn1cc(-c2cccc(N3Cc4cc(C(C)(C)C)ccc4C3=O)c2CO)nc(Nc2cnn(C3CC3)c2)c1=O"
  Target Or Test System: "CD86 surface expression on CD19+/7AAD- total mouse splenocytes stimulated with IgM"
  Measurement Unit: "nM"
  Result Number: 113
- Molecule: "Cc1c(-c2cn(C)c(=O)c(Nc3ccc(C4C(=O)NCCN4C)cc3)n2)cccc1N1Cc2cc(C(C)(C)C)sc2C1=O (centres unmarked)"
  Target Or Test System: "CD86 surface expression on CD19+/7AAD- total mouse splenocytes stimulated with IgM"
  Measurement Unit: "nM"
  Result Number: 1900

a = CN1CCN(c2ccc(Nc3cc(-c4cccc(N5Cc6cc(C(C)(C)C)sc6C5=O)c4CO)cn(C)c3=O)nc2)CC1
b = Cn1cc(-c2cccc(N3Cc4cc(C(C)(C)C)ccc4C3=O)c2CO)cc(Nc2ccc(C3CNC3)cn2)c1=O
c = Cn1cc(-c2ccc(F)c(N3Cc4cc(C(C)(C)C)sc4C3=O)c2CO)cc(Nc2ccncn2)c1=O
Could you please order the items by EC50, going from the lowest number to the highest? Returns: the labels arranged in the requested order.
a, b, c
